Would you mind telling me the reported growth inhibition of each entry?
experiment: NCI Yeast Anticancer Drug Screen. Data for the mlh1 strain (AID 171);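 note: 0% = growth of vehicle-treated control cultures of the same strain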
condition_summary: S. cerevisiae mlh1 strain growth inhibition; at 1.2 µM; stronger effect = higher value
The panel holds about 79,000 compounds, 15% with a hit somewhere; the sample as a whole holds those more often.
One number for each entry, in %.

In [3]: df
Out[3]:
                                   compound  recorded_result
0              C=C(CN(C)C)C(=O)c1cc(C)ccc1C               12
1  CN1c2ccc(Cl)cc2C(=O)NC1c1ccc([N+](=O)[O-])s1 (stereo not given)               13
2  O=C1C(Nc2ccccc2)=C(Oc2ccccc2)C(=O)c2ccccc21               -5

Kindly give each listed record's growth inhibition.
1. CC1(Cl)CC(O)C2(CC1Br)C1(C)OC1C1OC1(Br)C2(C)C (stereo not given)
2. CC1=NN(c2cccc(Cl)c2)C(=O)C1
3. CN(CCc1ccccn1)c1ccc2c(c1)Cc1ccccc1-2
4. COC(=O)c1ccc(NCC2=CC(=O)C=CC2=O)cc1O
5. CC(C)/C(Cl)=N\OC(=O)Nc1ccc(F)cc1

A:
1: -19; 2: -13; 3: 0; 4: 17; 5: 1

Kindly give each listed record's growth inhibition.
1. C=CCC1=C(C)C(OC(=O)/C=C/c2ccccc2)CC1=O (stereo not given)
2. O=C(O)C1OC1(c1cccc(Cl)c1)c1ccccc1Cl (stereo not given)
3. CC(=O)Cc1ccc[cH-]1.[Fe+2].c1cc[cH-]c1
4. COc1ccc2sc3cccc(NCCN(C)C)c3c(=O)c2c1
5. Cc1ccc(S(=O)(=O)NC(=O)NC2=NC(C)(C)N(c3ccc(Cl)c(Cl)c3)C(N)=N2)cc1
6. CCOC(=O)c1cnc2cc(C(F)(F)F)ccc2c1N=[N+]=[N-]
7. CC(C)C1=CCC2C(=C1)CCC1C(C)(C(=O)O)CCCC21C (stereo not given) (tested in a mixture with another compound)

A:
1: -3; 2: -26; 3: -1; 4: -1; 5: -1; 6: 7; 7: 12

* * *

experiment: NCI Yeast Anticancer Drug Screen. Data for the bub3 strain (AID 167)
condition_summary: S. cerevisiae bub3 mutant strain, at 11.0 µM, stronger effect = higher value
This is part of a sample that, as a whole, favours compounds with a hit. Of some 79,000 tested, about 15% had one in any assay.
Would you mind telling me the reported growth inhibition of each entry?
Answers are plain numbers, in %.

molecule	growth inhibition (%)
Cc1ccc(-c2ccc(Nc3c4ccccc4nc4ccccc34)cc2)cn1	-12
O=C1c2ccccc2C(=O)c2c(NC3CCCCC3)ccc(Nc3ccc(S(=O)(=O)O)cc3)c21	5
CC1CCN(CCC(=O)c2ccc(Cl)cc2)CC1	11
NC(N)=N/N=C\c1c2ccccc2cc2ccccc12	-59
Nc1nc(-c2cccnc2)cc(-c2cc(-c3cccnc3)nc(N)n2)n1	0

Kindly give each listed record's growth inhibition.
1. CCCCN(CCCC)CCSc1ccc(Cl)cc1
2. CCOC(=O)c1cc(-c2ccc(Cl)cc2)c([N+](=O)[O-])n1C
3. FC(F)(F)c1cc(NC(=S)N2c3ccccc3-n3cccc3C2c2cccnc2)cc(C(F)(F)F)c1 (configuration not stated)
4. Nc1ncncc1C(C1=C(O)COC1=O)C1=C(O)COC1=O
5. CC(=O)OCCOCNC(=S)N/N=C(\C)c1cnccn1

A:
-7
-9
-5
-1
24
